The reported numbers originate from paper PMC12157728.

assay: Lipophilicity by gradient RP-HPLC (C18, pH 7.4): CHI, chrom logD, PFI; format: physicochemical; set-up: key: PFI = Chrom logD7.4 + number of aromatic rings; details: PFI = Chrom logD7.4 + #Ar; threshold 7
measured.endpoint: PFI (Property Forecast Index)

Cl.Clc1ccccc1Nc1nc(NCCCc2ccccc2)nc(N2CCOCC2)n1 [Compound 6] | 7.71
Cl.Fc1ccc(N2CCN(CCNc3nc(Nc4ccccc4Cl)nc(N4CCOCC4)n3)CC2)cc1 [Compound 7] | 7.44
Cl.Clc1ccccc1Nc1nc(N2CCOCC2)nc(N2CCN(c3nsc4ccccc34)CC2)n1 [Compound 9] | 7.23
